// provenance: ChEMBL document CHEMBL2380264

experimentalSystem: Methionine aminopeptidase 2 (Homo sapiens)
Sequence (P50579 whole entry): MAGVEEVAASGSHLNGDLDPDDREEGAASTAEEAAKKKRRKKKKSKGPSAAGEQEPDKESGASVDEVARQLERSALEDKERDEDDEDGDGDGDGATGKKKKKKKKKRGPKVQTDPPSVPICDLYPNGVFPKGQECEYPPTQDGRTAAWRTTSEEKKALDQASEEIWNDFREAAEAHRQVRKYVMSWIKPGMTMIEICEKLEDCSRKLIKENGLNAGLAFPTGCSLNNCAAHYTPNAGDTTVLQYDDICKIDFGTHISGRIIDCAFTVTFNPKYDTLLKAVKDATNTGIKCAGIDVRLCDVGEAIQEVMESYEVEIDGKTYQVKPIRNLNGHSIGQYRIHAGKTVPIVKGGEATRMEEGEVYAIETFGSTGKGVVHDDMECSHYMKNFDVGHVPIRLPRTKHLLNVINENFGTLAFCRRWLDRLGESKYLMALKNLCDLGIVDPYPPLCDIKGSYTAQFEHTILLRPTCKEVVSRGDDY
measure: pIC50
Please express pIC50 as -log10 of the molar concentration.

Provide value of pIC50 for this record tested with Methionine aminopeptidase 2 (Homo sapiens): CO[C@@H]1[C@H](OC(=O)NC(=O)CCl)CC[C@]2(CO2)[C@H]1[C@@]1(C)O[C@@H]1CC=C(C)C [O-CHLOROACETYLCARBAMOYLFUMAGILLOL] 5.88

----------
System: HUVEC
protocolSummary: Antiproliferative against HUVEC after 48 hrs by MTT assay
conditions: Homo sapiens
Entries and their pIC50 values follow.
Please express pIC50 as -log10 of the molar concentration.

Cc1cccc(/C=C/c2nnc(-c3ccc4c(c3)OCCO4)o2)c1    4.39
O=[N+]([O-])c1ccc(/C=C/c2nnc(-c3ccc4c(c3)OCCO4)o2)cc1    4.49
Clc1ccccc1/C=C/c1nnc(-c2ccc3c(c2)OCCO3)o1    5.11
Clc1ccc(/C=C/c2nnc(-c3ccc4c(c3)OCCO4)o2)cc1    5.10
Cc1ccccc1/C=C/c1nnc(-c2ccc3c(c2)OCCO3)o1    4.39

I'd like to know its pIC50. The compound in question is "O=[N+]([O-])c1cccc(/C=C/c2nnc(-c3ccc4c(c3)OCCO4)o2)c1" 4.52

I'd like to know its pIC50. The compound in question is "Brc1cccc(/C=C/c2nnc(-c3ccc4c(c3)OCCO4)o2)c1" 4.87
